experiment_description: NCI Yeast Anticancer Drug Screen. Data for the rad50 strain (AID 155);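 also: 0% = growth of vehicle-only cultures of the same strain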
condition_label: S. cerevisiae rad50 strain growth inhibition; at 5.0 µM (retest, dose inferred, filed as 0.5)
The panel holds about 79,000 compounds, 15% with a hit somewhere; the sample as a whole holds those more often. Activity calls are given as the source filed them. Rule as the data show it: active = growth inhibition above about 70%; inactive = the rest.
Could you please pick one outcome from this set? active, inactive

{"compound": "Clc1ccccc1CN1COc2c(cc(Cl)c3cccnc23)C1", "assigned_label": "inactive"}
{"compound": "CCCCCN(CCCCC)C(C)C(=O)c1ccc2cc(Br)c3ccccc3c2c1 (stereo not given)", "assigned_label": "inactive"}
{"compound": "O=C(NCCCNCCCCNCCCNC(=O)c1cc(-c2ccccc2)nc2ccccc12)c1cc(-c2ccccc2)nc2ccccc12", "assigned_label": "inactive"}
{"compound": "CCCOCCC#N", "assigned_label": "inactive"}
{"compound": "COc1ccc2c(c1)CCc1c(CO)c(COC(=O)NC(C)C)n(C)c1-2", "assigned_label": "active"}
{"compound": "COc1cc2c(cc1O)CCN[C@@]21CS[C@H]2c3c(OC(C)=O)c(C)c4c(c3C(COC1=O)N1C2C2c3c(cc(C)c(OC)c3O)CC([C@@H]1O)N2C)OCO4 (stereo not given in full)", "assigned_label": "active"}
{"compound": "O=[N+]([O-])c1ccc(C2=Nn3c(nnc3-c3ccc(Cl)cc3)SC2)o1", "assigned_label": "inactive"}
{"compound": "Cc1ccccc1C(=N)c1ccccc1Cc1cccc2ccccc12", "assigned_label": "inactive"}

input: Which outcome did this test record for the compound `COc1ccc2c(c1)c1c(C)c3cnccc3c(C)c1n2CCCN` ?
output: inactive

input: Kindly provide the recorded test outcome for the following compound: `COc1cc(/C=C\C(=O)c2cccc(O)c(=O)c2)cc(OC)c1OC`
output: inactive

input: Called result for `O=C(NC(=Nc1ccccc1)SCCSC(=Nc1ccccc1)NC(=O)c1ccccc1)c1ccccc1`
output: inactive

input: I'd appreciate the recorded outcome for `O=C(O)c1ccc2c(Br)ccc3c2c1CC3` from this test.
output: inactive

input: How did this test come out for COC(=O)/N=C/CCC(O)NC(=O)OC (stereo not given) ?
output: inactive

input: Could you kindly confirm the outcome this assay logged for `CN1CCN(CCn2c3c4ccccc4ccc3c3oc(=O)c4ccccc4c32)CC1` ?
output: inactive

input: Call for entry `O=C(Nc1ccccc1C(=O)NC(=O)c1ccccc1NC(=O)c1ccccc1)c1ccccc1` :
output: inactive

input: Assay result, entry `Cc1ccc(C(=O)CC(O)(C(F)(F)F)C(F)(F)F)cc1[N+](=O)[O-]` — outcome?
output: inactive

###

experiment_description: NCI Yeast Anticancer Drug Screen. Data for the cln2 rad14 strain (AID 165);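 also: 0% = growth equal to vehicle treated cultures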
condition_label: S. cerevisiae cln2 rad14 strain, at 5.0 µM (retest, dose inferred, filed as 0.5)
The panel holds about 79,000 compounds, 15% with a hit somewhere; the sample as a whole holds those more often. Calls of active or inactive are those of the source. Cut-off read from the data, not from the text of the source: active = growth inhibition above about 70%; inactive = the rest.
Just give me one of these, please: 1 for active, 0 for inactive

Use the examples below as a reference point.
{"compound": "CN(C)c1ccc2c(NCCCCCCNc3ccnc4cc(N(C)C)ccc34)ccnc2c1", "assigned_label": 0}
{"compound": "COc1ccc(C2C3CCCC(C(c4ccc(OC)cc4)N2C)C32NC(=O)NC2=O)cc1 (stereo not drawn)", "assigned_label": 0}
{"compound": "COc1ccc(CSC(=S)Nc2ccc(SC)c(Cl)c2)cc1", "assigned_label": 0}
{"compound": "Cc1c(O)ccc2c1OCC(c1ccc(Cl)cc1)C2 (stereo not drawn)", "assigned_label": 0}

input: Tell me the assay call for `Nc1ccccc1Nc1c([N+](=O)[O-])cc(C(F)(F)F)cc1[N+](=O)[O-]` please.
output: 0

input: What is the recorded call for this compound in the test? Cc1[nH]c2ccccc2c1C(C)CC(O)c1ccccc1 (stereo not drawn)
output: 0

input: # lookup: test call for `O=Cc1cc2ccccc2cc1C=O`
output: 1
